assay: Cycloheximide Counterscreen for Small Molecule Inhibitors of Shiga Toxin; conditions: cell reporter, cycloheximide protein synthesis inhibition counterscreen; stronger effect = higher value; further: read at 38.3 µM for the half of the compounds with a filed dose
Screen size: about 300,000 compounds; about 37,000 (12%) were called active. Only a selection was taken, and actives are over-represented in it overall.
Answer false if max response is under 10%, and true if it is 10% or more.

Could you tell me if the measured max response of O=C(CN1CCN(c2ncccn2)CC1)Nc1ccccc1C(F)(F)F reaches 10% or more?
false

Could you tell me if the measured max response of CC(C)Sc1nnc([C@H](Cc2ccccc2)NC(=O)OC(C)(C)C)o1 reaches 10% or more?
false

Could you tell me if the measured max response of Oc1[nH]c2ccc(Br)cc2c1N=Nc1nn[nH]n1 reaches 10% or more?
false

Could you tell me if the measured max response of COc1cc(C(=O)NCC2(c3ccccc3)CCCC2)ccc1OC(C)C reaches 10% or more?
false

Could you tell me if the measured max response of CCc1ccc(C(=O)COC(=O)c2ccco2)cc1 reaches 10% or more?
true

Could you tell me if the measured max response of CC1(C(=O)N/N=C/c2cc3c(cc2Br)OCO3)CC1(Br)Br (stereo not drawn) reaches 10% or more?
false

Could you tell me if the measured max response of O=C(NCCc1ccccc1)C1CC1 reaches 10% or more?
true

Could you tell me if the measured max response of O=C(N/N=C/c1ccc(O)c(O)c1)C1c2ccccc2Oc2ccccc21 reaches 10% or more?
false

Could you tell me if the measured max response of O=C(/C=C\NCC(=O)c1ccccc1)c1ccccc1 reaches 10% or more?
true

Could you tell me if the measured max response of COc1ccc(C(=O)CC(=O)C(=O)Nc2cc([N+](=O)[O-])ccc2OC)cc1 reaches 10% or more?
false

Could you tell me if the measured max response of Cc1cccc[n+]1CC(=O)c1ccccc1 reaches 10% or more?
false

Could you tell me if the measured max response of CCCOc1ccc(C(=O)NCCc2ccccc2)cc1 reaches 10% or more?
true

Could you tell me if the measured max response of COc1ccc(C(=O)Nc2ccc3c(c2)OCO3)cc1OC reaches 10% or more?
true

Could you tell me if the measured max response of Cn1c(=O)n(C)c2cc(C(=O)Nc3ccc(Br)cc3)ccc21 reaches 10% or more?
false

Could you tell me if the measured max response of Nc1ccc(C(=O)NCc2ccccc2)cc1 reaches 10% or more?
false

Could you tell me if the measured max response of CCN(CC)c1ccc(C(=O)OCC(=O)c2ccco2)cc1 reaches 10% or more?
false

Could you tell me if the measured max response of COc1ccc(C(=O)Nc2ccc(C3(C#N)CCCC3)cc2)cc1OC reaches 10% or more?
true

Could you tell me if the measured max response of O=C(CCC(=O)Nc1ccccc1)N/N=C/c1ccccc1F reaches 10% or more?
true

Could you tell me if the measured max response of O=C(CCc1ccccc1)NNC(=O)COc1ccc(Cl)cc1 reaches 10% or more?
false

Could you tell me if the measured max response of Cc1cc(C(=O)NCCc2ccc(Cl)cc2)c(C)o1 reaches 10% or more?
true

Could you tell me if the measured max response of O=C(NCCc1ccccc1)c1ccc(OCCOc2ccccc2)cc1 reaches 10% or more?
false

Could you tell me if the measured max response of CCOc1cc(CNn2c(C)nnc2SCC(=O)NC(C)(C)C)ccc1OCC(=O)NC(C)(C)C reaches 10% or more?
false

Could you tell me if the measured max response of C[C@H](NC(=O)OC(C)(C)C)c1nnc(SCC(N)=O)o1 reaches 10% or more?
false

Could you tell me if the measured max response of O=C(/C=C/NNC(=O)c1cccc(Br)c1)c1ccccc1 reaches 10% or more?
true

Could you tell me if the measured max response of COc1ccc(-c2cc(C(F)(F)F)nc(SCC(=O)Nc3ccc4c(c3)OCO4)n2)cc1OC reaches 10% or more?
false

Could you tell me if the measured max response of Cc1ccc(NS(=O)(=O)c2ccc(F)cc2)nc1 reaches 10% or more?
false

Could you tell me if the measured max response of COc1cccc(OC)c1C(=O)Nc1ccc2c(c1)n(C)c(=O)n2C reaches 10% or more?
false

Could you tell me if the measured max response of CC(C)c1ccc(C(=O)NCCCc2ccccc2)cc1 reaches 10% or more?
true

Could you tell me if the measured max response of COc1ccc(CN2CCN(Cc3ccc(OC)c(OC)c3OC)CC2)cc1 reaches 10% or more?
false

Could you tell me if the measured max response of COc1ccccc1NC(=O)C1=C(C)Nc2nc3ccccc3n2C1c1cccs1 (stereo not drawn) reaches 10% or more?
false

Could you tell me if the measured max response of NS(=O)(=O)c1ccc(N=Nc2c(O)[nH]c3ccc(Br)cc23)cc1 reaches 10% or more?
false

Could you tell me if the measured max response of CC(=O)Oc1ccc(C(=O)Nc2nccs2)cc1 reaches 10% or more?
true

Could you tell me if the measured max response of COC(=O)c1c(C)c(C)nc(N)c1C#N reaches 10% or more?
false

Could you tell me if the measured max response of NS(=O)(=O)c1ccc(CCNC(=O)c2ccc(Cl)cc2[N+](=O)[O-])cc1 reaches 10% or more?
false

Could you tell me if the measured max response of CN(c1ccccc1)S(=O)(=O)c1ccc(C(=O)NCCc2ccccc2)cc1 reaches 10% or more?
true

Could you tell me if the measured max response of CN(c1ccccc1)c1ccc([N+](=O)[O-])c2nonc12 reaches 10% or more?
true

Could you tell me if the measured max response of Cn1nccc1NS(=O)(=O)c1ccc(F)cc1 reaches 10% or more?
true

Could you tell me if the measured max response of COc1ccc(C(=O)NC2CC(C)(C)Cc3c2cnn3-c2ccccc2C)o1 (stereo not drawn) reaches 10% or more?
false

Could you tell me if the measured max response of COCc1c(N)c(C)nc(Cl)c1C#N reaches 10% or more?
true

Could you tell me if the measured max response of Cn1cnnc1SCc1nnc(-c2ccccc2Br)o1 reaches 10% or more?
true

Could you tell me if the measured max response of O=C1/C(=C\c2ccccc2Cl)SC(=S)N1CCC(=O)N1CCCc2ccccc21 reaches 10% or more?
false

Could you tell me if the measured max response of O=C(CNCc1ccc(F)cc1)Nc1ccccc1-c1ccccc1 reaches 10% or more?
false

Could you tell me if the measured max response of O=C(NCCc1ccccc1)Oc1ccc(Cl)cc1 reaches 10% or more?
true

Could you tell me if the measured max response of Cn1c(=O)n(C)c2cc(C(=O)Nc3ccc4c(c3)OCO4)ccc21 reaches 10% or more?
true

Could you tell me if the measured max response of COc1ccc(-c2noc(C(C)NS(=O)(=O)c3ccc(NC(C)=O)cc3)n2)cc1 (stereo not drawn) reaches 10% or more?
false

Could you tell me if the measured max response of O=C(/C=C/NCc1ccc(F)cc1)c1ccccc1 reaches 10% or more?
true

Could you tell me if the measured max response of O=C(NC1CCCC1)C(c1ccc(Cl)cc1)N(C(=O)c1csnn1)C1CC1 (stereo not drawn) reaches 10% or more?
false
